# SUBJECT_OF_TEST: intracellular domain of human Tie2 (GST fusion protein) (Homo sapiens)
# Construct: intracellular domain of human Tie2 (amino acids 776-1124)
# Sequence (Q02763 776-1124): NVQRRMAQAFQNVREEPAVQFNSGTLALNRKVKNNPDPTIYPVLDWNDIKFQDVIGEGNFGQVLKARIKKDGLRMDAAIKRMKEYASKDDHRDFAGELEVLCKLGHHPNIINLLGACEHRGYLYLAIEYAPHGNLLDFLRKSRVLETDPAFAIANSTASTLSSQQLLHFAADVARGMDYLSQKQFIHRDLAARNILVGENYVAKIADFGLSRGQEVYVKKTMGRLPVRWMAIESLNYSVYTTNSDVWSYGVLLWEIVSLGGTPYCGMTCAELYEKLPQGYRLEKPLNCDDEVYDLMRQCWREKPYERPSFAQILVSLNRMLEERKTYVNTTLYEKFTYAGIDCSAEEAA
# PROTOCOL_NOTES: Tie2 kinase assay (Tie2-TR-FRET)
# CONDITION_LABEL: ATP concentration 1 mM, in some cases means of several independent determinations
pIC50: −log10 of the molar value.
Label scheme for pIC50: lower than 9 is FALSE, 9 and above is TRUE.

Req: Reported pIC50 at or above 9? `Cc1cc(C(=O)Nc2ccc(C)c(-n3ccn4nc(-c5cccnc5)cc34)c2)cc(S(F)(F)(F)(F)F)c1`
Resp: FALSE

Req: Assess whether reported pIC50 for `Cc1ccc(NC(=O)c2cc(C(F)(F)F)cc(C(F)(F)F)c2)cc1-n1ccn2nc(-c3cccnc3)cc12` sits at 9 or higher.
Resp: FALSE

Req: Can `N#Cc1cc(C(=O)Nc2cccc(-n3ccn4nc(-c5cccnc5)cc34)c2F)cc(S(F)(F)(F)(F)F)c1` be said to have pIC50 at or above 9?
Resp: FALSE

Req: Say whether Cc1cc(C)c(-n2ccn3nc(-c4cccnc4)cc23)cc1NC(=O)c1cc(C#N)cc(S(F)(F)(F)(F)F)c1 [Example 74] shows pIC50 of 9 or more.
Resp: TRUE

Req: Assess whether reported pIC50 for `Cc1cc(C(=O)Nc2ccc(C)c(-n3ccn4nc(-c5cccnc5)cc34)c2)cc(S(N)(=O)=O)c1` sits at 9 or higher.
Resp: FALSE

Req: Item `Cc1ccc(NC(=O)c2cc(C#N)nc(C(C)(C)C)c2)cc1-n1ccn2nc(-c3cccnc3)cc12` with pIC50 of 9 or above?
Resp: FALSE

Req: Given `Cc1ccc(NC(=O)c2cccc(-c3cccc(C#N)c3)c2)cc1-n1ccn2nc(-c3cccnc3)cc12` , state whether its pIC50 is at least 9.
Resp: FALSE

Req: Dear colleague, could you confirm whether `Cc1ccc(-n2ccn3nc(-c4cccnc4)cc23)cc1NC(=O)c1cc(C#N)cc(C(C)(C)C)c1` has pIC50 at or above 9?
Resp: FALSE

Req: Reported pIC50 at or above 9? `Cc1cc(C)c(-n2ccn3nc(-c4cccnc4)cc23)cc1NC(=O)c1cccc(OC(F)(F)C(F)F)c1`
Resp: FALSE

Req: Decide: pIC50 of `Cc1ccc(NC(=O)c2cc(F)cc(S(F)(F)(F)(F)F)c2)cc1-n1ccn2nc(-c3cncs3)cc12` >= 9?
Resp: FALSE

Req: Decide: pIC50 of `Cc1cc(F)c(NC(=O)c2cc(C#N)cc(S(F)(F)(F)(F)F)c2)cc1-n1ccn2nc(-c3cccnc3)cc12` >= 9?
Resp: TRUE

Req: Check this molecule for pIC50 at or above 9: `Cc1ccc(NC(=O)c2cc(OCCCN)cc(S(F)(F)(F)(F)F)c2)cc1-n1ccn2nc(-c3cccnc3)cc12`
Resp: TRUE

Req: Reported pIC50 at or above 9? `Cc1ccc(NC(=O)c2cc(N3CCNCC3)cc(S(F)(F)(F)(F)F)c2)cc1-n1cc(C)n2nc(-c3cn[nH]c3)cc12`
Resp: TRUE

Req: Textbook exercise: given the entry `O=C(Nc1ccc(Cl)c(-n2ccn3nc(-c4cccnc4)cc23)c1)c1cccc(S(F)(F)(F)(F)F)c1` , state whether its pIC50 is greater than or equal to 9.
Resp: FALSE

Req: Check if pIC50 >= 9 (inclusive). Item: `Cc1ccc(NC(=O)c2cc(C(C)C)ccc2O)cc1-n1ccn2nc(-c3cccnc3)cc12`
Resp: FALSE

Req: Has `Cc1ccc(NC(=O)c2cccc(C(F)(F)F)c2F)cc1-n1ccn2nc(-c3cccnc3)cc12` a recorded pIC50 greater than or equal to 9?
Resp: FALSE

Req: Hi team, for `Cc1cc(C)c(-n2ccn3nc(-c4cccnc4)cc23)cc1NC(=O)c1cc(C#N)nc(C(C)(C)C)c1` , is the recorded pIC50 at or above 9?
Resp: TRUE

Req: Item `COc1ccc(S(F)(F)(F)(F)F)cc1C(=O)Nc1ccc(C)c(-n2ccn3nc(-c4cccnc4)cc23)c1` with pIC50 of 9 or above?
Resp: FALSE

Req: Hi team, for `O=C(Nc1ccc(F)c(-n2ccn3nc(-c4cccnc4)cc23)c1)c1cccc(S(F)(F)(F)(F)F)c1` , is the recorded pIC50 at or above 9?
Resp: FALSE

Req: Has Cc1ccc(NC(=O)c2cc(C3(O)CNC3)cc(S(F)(F)(F)(F)F)c2)cc1-n1ccn2nc(-c3cccnc3)cc12 [Example 37, bis(trifluoroacetate)] a recorded pIC50 greater than or equal to 9?
Resp: TRUE

Req: Threshold query (pIC50 >= 9) on `Cc1cc(C)c(-n2ccn3nc(-c4cccnc4)cc23)cc1NC(=O)c1cc(CC(=O)OC(C)(C)C)cc(S(F)(F)(F)(F)F)c1`
Resp: FALSE

Req: Exam item: decide whether the reported pIC50 for `Cc1ccc(NC(=O)c2cc(CN3CCNCC3)cc(S(F)(F)(F)(F)F)c2)cc1-n1ccn2nc(-c3cccnc3)cc12` is at least 9.
Resp: TRUE

Req: Does the reported pIC50 for `Cc1ccc(NC(=O)c2cccc(S(F)(F)(F)(F)F)c2)cc1-n1ccn2nc(-c3cncnc3)cc12` fall at or above the 9 mark?
Resp: FALSE
